# STUDY TARGET: B1 bradykinin receptor (Homo sapiens)
# Sequence (P46663 whole entry): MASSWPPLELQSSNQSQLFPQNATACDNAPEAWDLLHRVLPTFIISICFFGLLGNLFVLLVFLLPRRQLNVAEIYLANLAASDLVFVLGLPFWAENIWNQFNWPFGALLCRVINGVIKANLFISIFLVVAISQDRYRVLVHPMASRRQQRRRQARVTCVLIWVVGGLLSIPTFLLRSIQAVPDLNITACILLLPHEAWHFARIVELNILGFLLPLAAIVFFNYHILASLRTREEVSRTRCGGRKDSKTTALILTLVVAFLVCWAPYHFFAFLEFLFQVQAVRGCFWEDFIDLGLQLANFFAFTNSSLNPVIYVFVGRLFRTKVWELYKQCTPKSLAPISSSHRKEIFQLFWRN
# TEST PROTOCOL: Binding affinity to human BK1 receptor
pKi: −log10 of the molar value.
MEASUREMENT TYPE: pKi

(P) COC(=O)c1c(F)cccc1-c1ccc(CNc2ccc(C(=O)N3CCN(C4CCC4)CC3)cn2)c(F)c1
(Q) CCCCN1CCN(C(=O)c2ccc(NCc3ccc(-c4cccc(F)c4C(=O)OC)cc3F)nc2)CC1
(R) C=CCN1CCN(C(=O)c2ccc(NCc3ccc(-c4cccc(F)c4C(=O)OC)cc3F)nc2)CC1
(S) COC(=O)c1c(Cl)cccc1-c1ccc(CNc2cc(CN3CCCCC3)ccn2)c(F)c1
Inquiry: Which order do these fall in by pKi? Give them lowest to highest. The response must list the labels following the requested ordering.
Reply text: S, R, P, Q

Data origin, for the record: ChEMBL document CHEMBL1147019
